Target: hTLR8 (Homo sapiens, UniProt Q9NR97)
Sequence (Q9NR97 27-1041): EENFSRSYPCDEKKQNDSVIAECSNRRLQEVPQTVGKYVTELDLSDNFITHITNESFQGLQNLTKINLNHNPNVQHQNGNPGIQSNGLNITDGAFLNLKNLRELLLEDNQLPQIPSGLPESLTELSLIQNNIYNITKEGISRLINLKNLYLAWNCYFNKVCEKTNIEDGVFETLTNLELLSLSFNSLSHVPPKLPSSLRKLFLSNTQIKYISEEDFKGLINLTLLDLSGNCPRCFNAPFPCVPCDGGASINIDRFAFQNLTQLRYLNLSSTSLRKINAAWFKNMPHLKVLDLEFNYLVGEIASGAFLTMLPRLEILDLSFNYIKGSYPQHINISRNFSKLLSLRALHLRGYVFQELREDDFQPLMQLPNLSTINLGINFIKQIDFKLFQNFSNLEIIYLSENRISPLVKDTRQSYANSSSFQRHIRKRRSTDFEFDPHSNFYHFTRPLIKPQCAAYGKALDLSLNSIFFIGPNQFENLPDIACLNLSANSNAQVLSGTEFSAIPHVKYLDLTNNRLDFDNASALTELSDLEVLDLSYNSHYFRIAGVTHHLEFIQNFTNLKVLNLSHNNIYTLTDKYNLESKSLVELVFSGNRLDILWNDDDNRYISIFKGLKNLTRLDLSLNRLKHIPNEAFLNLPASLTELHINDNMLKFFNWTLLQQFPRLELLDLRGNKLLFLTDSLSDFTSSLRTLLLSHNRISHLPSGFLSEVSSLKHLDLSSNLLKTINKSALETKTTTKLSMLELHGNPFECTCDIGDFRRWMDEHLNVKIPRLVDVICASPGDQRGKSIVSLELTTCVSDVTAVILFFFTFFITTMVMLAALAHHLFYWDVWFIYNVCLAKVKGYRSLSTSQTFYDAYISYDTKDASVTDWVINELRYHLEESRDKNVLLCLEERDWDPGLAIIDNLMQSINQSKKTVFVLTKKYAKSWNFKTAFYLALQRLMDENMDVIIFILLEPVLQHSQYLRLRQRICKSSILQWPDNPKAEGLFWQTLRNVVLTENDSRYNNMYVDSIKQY
Experiment: Agonistic activity on human TLR8 in HEK-Blue hTLR8 cells (QUANTI-Blue)
Conditions: 24 h incubation, OD650, read-out: hTLR 8 EC50
pEC50: −log10 of the molar value.
Heads up, the class ranges for pEC50 are one (below 6), two (6 to below 7), three (7 or more)

// return the class label for C=CCCN(C)C(=O)c1c[nH]c(=O)cc1-c1cnc2c(N[C@@](C)(CO)CCCC)nc(N)nc2c1 one

Categorize the following entry: CCCC[C@](C)(CO)Nc1nc(N)nc2cc(-c3cc(=O)[nH]cc3CN(C)CCC3CC3)cnc12 three

Which class is correct for the following molecule? CCCC[C@](C)(CO)Nc1nc(N)nc2cc(-c3cc(=O)[nH]cc3CN(C)CCc3ccccc3)cnc12 one

Which pEC50 category applies to C=CCCN(CCC=C)Cc1c[nH]c(=O)cc1-c1cnc2c(N[C@@](C)(CO)CCCC)nc(N)nc2c1 here? one

For this molecule, which bin applies? CCCC[C@](C)(CO)Nc1nc(N)nc2cc(-c3cc(=O)[nH]cc3CN(C)CCO)ccc12 two

====

Target: CYP3A4 (Homo sapiens)
Construct: from tissue; host or cells: human liver microsomes
Sequence (P08684 whole entry): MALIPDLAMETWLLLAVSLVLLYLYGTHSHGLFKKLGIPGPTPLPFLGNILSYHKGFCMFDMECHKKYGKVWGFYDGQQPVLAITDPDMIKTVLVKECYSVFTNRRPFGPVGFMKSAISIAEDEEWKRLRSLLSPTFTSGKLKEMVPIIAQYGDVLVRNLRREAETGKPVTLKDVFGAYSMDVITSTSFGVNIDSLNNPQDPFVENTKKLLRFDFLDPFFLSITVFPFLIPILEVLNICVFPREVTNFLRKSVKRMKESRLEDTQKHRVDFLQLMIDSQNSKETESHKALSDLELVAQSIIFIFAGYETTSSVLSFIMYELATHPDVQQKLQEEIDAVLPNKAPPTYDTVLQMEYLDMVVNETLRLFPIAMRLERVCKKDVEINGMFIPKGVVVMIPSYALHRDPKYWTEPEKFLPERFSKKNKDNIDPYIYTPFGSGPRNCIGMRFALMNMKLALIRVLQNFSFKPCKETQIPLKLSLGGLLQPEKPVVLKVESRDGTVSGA
Experiment: Inhibition of human liver microsomal CYP3A4
Format: in vitro ADME
Conditions: probe Testosterone; human liver microsomes, 10 μM test substance, substrate Testosterone; read-out: Relative inhibition rate (%) CYP3A4 (Testosterone)
Use y when the recorded inhibition at 10 µM is no lower than 10%; use n when it is lower.

Answered cases to consult:
compound: CCCC[C@](C)(CO)Nc1nc(N)nc2cc(-c3cc(=O)n(C)cc3CN(C)CCOC)ccc12 [Example 55]
answer.label: y
--
compound: CCCCN(C)Cc1c[nH]c(=O)cc1-c1ccc2c(N[C@@](C)(CO)CCCC)nc(N)nc2c1 [Example 36]
answer.label: n
--
compound: CCCC[C@](C)(CO)Nc1nc(N)nc2cc(-c3cc(=O)n(C)cc3CN(C)CCO)ccc12 [Example 64]
answer.label: n
--
compound: C=CCCN(C)Cc1c[nH]c(=O)cc1-c1ccc2c(N[C@@](C)(CO)CCCC)nc(N)nc2c1 [Example 35]
answer.label: y
--
compound: CCCCN(C)Cc1c[nH]c(=O)cc1-c1cnc2c(N[C@@](C)(CO)CCCC)nc(N)nc2c1 [Example 28]
answer.label: y
--
compound: CCCC[C@](C)(CO)Nc1nc(N)nc2cc(-c3cc(=O)[nH]cc3CN(C)C)cnc12 [Example 50]
answer.label: y

Let's switch to this compound now.
Please tell me: is the compound CCCC[C@](C)(CO)Nc1nc(N)nc2cc(-c3cc(=O)[nH]cc3CN(C)CCOC)cnc12 [Example 21] at or over 10% in terms of inhibition at 10 µM? y

====

Test: in vitro
Settings: human
quantity: CC50 at 24 h

I have this compound here, CCCC[C@](C)(CO)Nc1nc(N)nc2cc(-c3cc(=O)n(C)cc3CN3CCNCC3)cnc12 , and I need its recorded CC50 at 24 h. > 100 µM

====

Test system: CYP2B6
Test: Induction of CYP2B6 in frozen human hepatocytes
Type: in vitro ADME
Details: 72 h induction, concentration and readout not stated
quantity: CYP2B6 Induction fold relative to blank control
Reply with the value as a number alone.

A selection of reference data follows.
compound: CCCC[C@](C)(CO)Nc1nc(N)nc2cc(F)cnc12 [Comparative compounds, reference compound]
assay.value: 3.6
--
compound: CCCC[C@](C)(CO)Nc1nc(N)nc2cc(-c3cc(=O)n(C)cc3CN3CCCCC3)ccc12
assay.value: 0.6

Alright, here's another compound for you.
I would be grateful if you could share the reported CYP2B6 Induction fold relative to blank control for CCCC[C@](C)(CO)Nc1nc(N)nc2cc(-c3cc(=O)[nH]cc3CN(C)CCOC)cnc12 . 0.5
